assay_target: T1, human myostatin (mature, recombinant; R&D Systems) (human, UniProt O14793 267-375)
T1 sequence: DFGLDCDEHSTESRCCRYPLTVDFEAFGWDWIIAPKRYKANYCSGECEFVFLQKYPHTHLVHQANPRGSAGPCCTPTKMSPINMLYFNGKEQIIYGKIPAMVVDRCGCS
assay_details: cell-based or functional assay
Myostatin ARE-luc IC50 listing for selected binders.

// solved cases for Myostatin ARE-luc IC50 follow
{"binder": "3116_A06 S25A (designed binder) MGVSDVPRDLEVVAATPTSLLISWALPHQGKANYYRITYGETGGNSPVQEFTVPGRGVTATISGLKPGVDYTITVYAVTVTDTGYLKYKPISINYRTEIDKPSQHHHHHH", "Myostatin ARE-luc IC50": "2.9 nM"}
{"binder": "3116_A06 Y85A (designed binder) MGVSDVPRDLEVVAATPTSLLISWSLPHQGKANYYRITYGETGGNSPVQEFTVPGRGVTATISGLKPGVDYTITVYAVTVTDTGALKYKPISINYRTEIDKPSQHHHHHH", "Myostatin ARE-luc IC50": "5.5 nM"}
{"binder": "3116_A06 G84A (designed binder) MGVSDVPRDLEVVAATPTSLLISWSLPHQGKANYYRITYGETGGNSPVQEFTVPGRGVTATISGLKPGVDYTITVYAVTVTDTAYLKYKPISINYRTEIDKPSQHHHHHH", "Myostatin ARE-luc IC50": "3.6 nM"}
{"binder": "3116_A06 K87A (designed binder) MGVSDVPRDLEVVAATPTSLLISWSLPHQGKANYYRITYGETGGNSPVQEFTVPGRGVTATISGLKPGVDYTITVYAVTVTDTGYLAYKPISINYRTEIDKPSQHHHHHH", "Myostatin ARE-luc IC50": "2 nM"}
{"binder": "3116_A06 Q29A (designed binder) MGVSDVPRDLEVVAATPTSLLISWSLPHAGKANYYRITYGETGGNSPVQEFTVPGRGVTATISGLKPGVDYTITVYAVTVTDTGYLKYKPISINYRTEIDKPSQHHHHHH", "Myostatin ARE-luc IC50": "1.5 nM"}
{"binder": "3116_A06 K31A (designed binder) MGVSDVPRDLEVVAATPTSLLISWSLPHQGAANYYRITYGETGGNSPVQEFTVPGRGVTATISGLKPGVDYTITVYAVTVTDTGYLKYKPISINYRTEIDKPSQHHHHHH", "Myostatin ARE-luc IC50": "2.2 nM"}
{"binder": "3116_A06 G57A (designed binder) MGVSDVPRDLEVVAATPTSLLISWSLPHQGKANYYRITYGETGGNSPVQEFTVPGRAVTATISGLKPGVDYTITVYAVTVTDTGYLKYKPISINYRTEIDKPSQHHHHHH", "Myostatin ARE-luc IC50": "> 100 nM"}

Kindly consider the entry below.
Req: # Myostatin ARE-luc IC50 lookup, item 3116_A06 L86A (designed binder) MGVSDVPRDLEVVAATPTSLLISWSLPHQGKANYYRITYGETGGNSPVQEFTVPGRGVTATISGLKPGVDYTITVYAVTVTDTGYAKYKPISINYRTEIDKPSQHHHHHH
Resp: 12 nM
